# protocol_summary: Mouse PK
# Assay type: in vivo
# cond: male, ICR, mouse, plasma, oral, 10 mg/kg
value_kind: bioavailability (%)

>  <compound_structure_string>
CN1CCN(c2ccc(C(=O)Nc3cc(-c4nc5ccccc5[nH]4)n[nH]3)cc2)CC1

>  <meas_value>
25.5

$$$$

###

# protocol_summary: Mouse PK
# Format: in vivo
# cond: male, ICR, mouse, plasma, iv, 1 mg/kg

>  <compound_structure_string>
CN1CCN(c2ccc(C(=O)Nc3cc(-c4nc5ccccc5[nH]4)n[nH]3)cc2)CC1

>  <half-life (h)>
1.23

$$$$
